Reported values of self-aminoacylation for individual entries
System: biotinyl-Phe-oxazolone
protocol.notes: self-aminoacylation, catalytic enhancement (BFO) (fold over background); higher = more active; k-Seq, kA / k0A0; sequences stand for … in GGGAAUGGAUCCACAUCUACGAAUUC…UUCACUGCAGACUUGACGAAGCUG
Fewer inactive variants are shown than the library holds.
quantity.name: self-aminoacylation

>  <residue.codes>
AAGUAUGCCAAUAGUCGCAAG [Fam3.1 aminoacylation ribozyme variant]

>  <observed.measurement>
2.34

$$$$
>  <residue.codes>
CUAAUUCUAACAAUCGGUCUG [Fam1A.1 aminoacylation ribozyme variant]

>  <observed.measurement>
0.731

$$$$
>  <residue.codes>
AUUGCCCUGGUCAUCGAGCGA [Fam2.1 aminoacylation ribozyme variant]

>  <observed.measurement>
3.91

$$$$
